Just for reference, paper PMC6345774 is where these values come from.

PROTOCOL SUMMARY: TFE titrations monitored by CD (helical population)
Type: physicochemical
CONDITION SET: CD at 222 nm, 5 °C, 50 mM phosphate pH 6.8, peptide 40 μM; two-state fit, ± fitting error
So I've got a bunch of molecules here, and I need their [TFE]1/2 (midpoint of TFE titration) values.

{"columns": ["CHEM SMILES", "[TFE]1/2 (midpoint of TFE titration)"],
 "data": [
  ["CC(=O)N[C@@H](CCC(=O)O)C(=O)N[C@@H](CC(=O)O)C(=O)N[C@@H](Cc1ccccc1)C(=O)N[C@@H](CC(=O)O)C(=O)N[C@@H](CC(=O)O)C(=O)N[C@@H](CC(C)C)C(=O)N[C@@H](Cc1c[nH]c2ccccc12)C(=O)N[C@@H](CCCCN)C(=O)N[C@@H](CC(C)C)C(=O)N[C@@H](CC(C)C)C(=O)N1CCC[C@H]1C(=O)N[C@@H](CCC(=O)O)C(=O)N[C@@H](CC(N)=O)C(N)=O", "9.8 ± 0.8 % (vol:vol)"],
  ["CC(=O)N[C@@H](CCC(=O)O)C(=O)N[C@@H](CC(=O)O)C(=O)N[C@@H](Cc1ccccc1)C(=O)N[C@@H](CO)C(=O)N[C@@H](CC(=O)O)C(=O)N[C@@H](CC(C)C)C(=O)N[C@@H](Cc1c[nH]c2ccccc12)C(=O)N[C@@H](CCCCN)C(=O)N[C@@H](CC(C)C)C(=O)N[C@@H](CC(C)C)C(=O)N1CCC[C@H]1C(=O)N[C@@H](CCC(=O)O)C(=O)N[C@@H](CC(N)=O)C(N)=O", "12.0 ± 0.7 % (vol:vol)"],
  ["CC(=O)N[C@@H](CCC(=O)O)C(=O)N[C@H](C(=O)N[C@@H](Cc1ccccc1)C(=O)N[C@@H](CCC(=O)O)C(=O)N[C@@H](CC(=O)O)C(=O)N[C@@H](CC(C)C)C(=O)N[C@@H](Cc1c[nH]c2ccccc12)C(=O)N[C@@H](CCCCN)C(=O)N[C@@H](CC(C)C)C(=O)N[C@@H](CC(C)C)C(=O)N1CCC[C@H]1C(=O)N[C@@H](CCC(=O)O)C(=O)N[C@@H](CC(N)=O)C(N)=O)[C@@H](C)O", "25 ± 2 % (vol:vol)"]
]}

# ---- query molecule ----
Look up [TFE]1/2 (midpoint of TFE titration): CC(=O)N[C@@H](CCC(=O)O)C(=O)N[C@@H](CCC(=O)O)C(=O)N[C@@H](Cc1ccccc1)C(=O)N[C@@H](CO)C(=O)N[C@@H](CC(=O)O)C(=O)N[C@@H](CC(C)C)C(=O)N[C@@H](Cc1c[nH]c2ccccc12)C(=O)N[C@@H](CCCCN)C(=O)N[C@@H](CC(C)C)C(=O)N[C@@H](CC(C)C)C(=O)N1CCC[C@H]1C(=O)N[C@@H](CCC(=O)O)C(=O)N[C@@H](CC(N)=O)C(N)=O
14 ± 5 % (vol:vol)
